# pIC50 values compiled below
# assayed system: recombinant BRD4 BD1 (Homo sapiens)
# Construct: for recombinant BRD4 BD1 and BRD4 BD2 proteins
# assay method text: Competitive fluorescence-polarization (FP) binding assay, BRD4 BD1
# assay context: competitive FP, Table 6; read-out: IC50 as determinined in FP assays BRD4 BD1
# Description: Fluorescence Polarization (FP) competitive binding studies were carried out using a FAM labeled fluorescent probe, see, e.g., Cpd. […] Equilibrium dissociation constants (Kd) values of the fluorescent probe to BRD4 BD1 and BD2 proteins were determined from protein saturation experiments by monitoring the total fluorescence polarization of mixtures composed with the fluorescent probe at a fixed concentration and proteins with increasing concentrations up to full saturation. […]
pIC50: −log10 of the molar value.

compound	assayed system	pIC50
Cc1nnc(C[C@@H]2N=C(c3ccc(Cl)cc3)c3c(sc(C#CC4CCOCC4)c3C)-n3c(C)nnc32)o1 [Compound 145]	recombinant BRD4 BD1 (Homo sapiens)	7.79
Cc1c(C#Cc2ccc(N)nc2)sc2c1C(c1ccc(Cl)cc1)=N[C@@H](CC(N)=O)c1nnc(C)n1-2 [Compound 121]	recombinant BRD4 BD1 (Homo sapiens)	7.97
Cc1c(C#Cc2ccc(N)nc2)sc2c1C(c1ccc(Cl)cc1)=N[C@@H](CC(=O)N1CCN(C)CC1)c1nnc(C)n1-2 [Compound 120]	recombinant BRD4 BD1 (Homo sapiens)	8.28
Cc1c(C#Cc2ccccn2)sc2c1C(c1ccc(Cl)cc1)=N[C@@H](CC(=O)N1CC3(COC3)C1)c1nnc(C)n1-2 [Compound 124]	recombinant BRD4 BD1 (Homo sapiens)	7.96
CCNC(=O)C[C@@H]1N=C(c2ccc(Cl)cc2)c2c(sc(C#Cc3cccnc3)c2C)-n2c(C)nnc21 [Compound 114]	recombinant BRD4 BD1 (Homo sapiens)	8.09
Cc1c(C#Cc2ccccn2)sc2c1C(c1ccc(Cl)cc1)=N[C@@H](CC(=O)N1CCC(O)CC1)c1nnc(C)n1-2 [Compound 123]	recombinant BRD4 BD1 (Homo sapiens)	7.69
Cc1c(C#Cc2ccccn2)sc2c1C(c1ccc(Cl)cc1)=N[C@@H](CC(C)C)c1nnc(C)n1-2 [Compound 105]	recombinant BRD4 BD1 (Homo sapiens)	7.47
Cc1c(C#Cc2ccccn2)sc2c1C(c1ccc(Cl)cc1)=N[C@@H](CC(=O)N1CCNCC1)c1nnc(C)n1-2 [Compound 122]	recombinant BRD4 BD1 (Homo sapiens)	7.85
Cc1c(C#CC2CCOCC2)sc2c1C(c1ccc(Cl)cc1)=N[C@@H](CC(=O)N1CC(C)(O)C1)c1nnc(C)n1-2 [Compound 158]	recombinant BRD4 BD1 (Homo sapiens)	7.32
Cc1c(C#Cc2cccnc2)sc2c1C(c1ccc(Cl)cc1)=N[C@@H](CC(=O)O)c1nnc(C)n1-2 [Compound 112]	recombinant BRD4 BD1 (Homo sapiens)	7.06
Cc1nnc(C[C@@H]2N=C(c3ccc(Cl)cc3)c3c(sc(C#CC(C)(C)O)c3C)-n3c(C)nnc32)o1 [Compound 144]	recombinant BRD4 BD1 (Homo sapiens)	7.66
Cc1c(C#Cc2ccccn2)sc2c1C(c1ccc(Cl)cc1)=N[C@@H](CC(=O)NC1CCN(C)CC1)c1nnc(C)n1-2 [Compound 130]	recombinant BRD4 BD1 (Homo sapiens)	8.06
CCNC(=O)C[C@@H]1N=C(c2ccc(Cl)cc2)c2c(sc(C#Cc3ccccn3)c2C)-n2c(C)nnc21 [Compound 110]	recombinant BRD4 BD1 (Homo sapiens)	8.07
Cc1c(C#Cc2ccccn2)sc2c1C(c1ccc(Cl)cc1)=N[C@@H](CC(=O)Nc1ccc(O)cc1)c1nnc(C)n1-2 [Compound 125]	recombinant BRD4 BD1 (Homo sapiens)	7.99
